Molecular target: RSV prefusion F (preF), subtype A (respiratory syncytial virus, subtype A, UniProt P03420 26-513)
Assay: BLI, IgG
Endpoint name: Kd (nM)
Provide only the numeric value, understood in nM.

INSERT INTO results (binder, endpoint_name, units_text, measured_number) VALUES
  ('ADI-14576 (antibody, V domains shown) VH: QVQLVQSGAEVKKPGASVKVSCKASGYTFTSYGISWVRQAPGQGLEWMGWISAYNGNTNYAQKLQGRVTMTTDTSTSTAYMELRSLRSDDTAVYYCARDPPVIAAGDFQHWGQGTLVTVSS VL: DIVLTQSPLSLPVTLGQPASISCRSSQSLVHSDGNTYLNWFQQRPGQSPRRLIYKVSNRDSGVPDRFSGSGSGTDFTLKISRVEAEDVGVYYCMQGTHWPPDFGQGTRLEIK', 'Kd', 'nM', 6.97);

**Q:** Value lookup for Kd; key = ADI-21061 (antibody, V domains shown) VH: QVQLVQSGAEVKKPGSSVKVSCKASGGTFSNYPISWVRQAPGHGLEWMGRVVPTVGLANYAQNLQGRVTITADTSTNTVYMELRSLRSEDTGLYYCARRAVVDTYAFDIWGQGTLVTVSS VL: QSALIQPASVSGFPGQSITISCTGASSDVGGYNFVSWYQQHPGKAPKLIIYEVTKRPSGVSNRFSGSESGNTASLTISGLQAEDEADYYCSSFRYTSSIVYVFGSGTKVTVL
**A:** 1.1
